Target: T1, EsCas13d, nuclease-dead (Eubacterium siraeum, UniProt B0MS50, R295A;H300A;R849A;H854A)
T1 sequence: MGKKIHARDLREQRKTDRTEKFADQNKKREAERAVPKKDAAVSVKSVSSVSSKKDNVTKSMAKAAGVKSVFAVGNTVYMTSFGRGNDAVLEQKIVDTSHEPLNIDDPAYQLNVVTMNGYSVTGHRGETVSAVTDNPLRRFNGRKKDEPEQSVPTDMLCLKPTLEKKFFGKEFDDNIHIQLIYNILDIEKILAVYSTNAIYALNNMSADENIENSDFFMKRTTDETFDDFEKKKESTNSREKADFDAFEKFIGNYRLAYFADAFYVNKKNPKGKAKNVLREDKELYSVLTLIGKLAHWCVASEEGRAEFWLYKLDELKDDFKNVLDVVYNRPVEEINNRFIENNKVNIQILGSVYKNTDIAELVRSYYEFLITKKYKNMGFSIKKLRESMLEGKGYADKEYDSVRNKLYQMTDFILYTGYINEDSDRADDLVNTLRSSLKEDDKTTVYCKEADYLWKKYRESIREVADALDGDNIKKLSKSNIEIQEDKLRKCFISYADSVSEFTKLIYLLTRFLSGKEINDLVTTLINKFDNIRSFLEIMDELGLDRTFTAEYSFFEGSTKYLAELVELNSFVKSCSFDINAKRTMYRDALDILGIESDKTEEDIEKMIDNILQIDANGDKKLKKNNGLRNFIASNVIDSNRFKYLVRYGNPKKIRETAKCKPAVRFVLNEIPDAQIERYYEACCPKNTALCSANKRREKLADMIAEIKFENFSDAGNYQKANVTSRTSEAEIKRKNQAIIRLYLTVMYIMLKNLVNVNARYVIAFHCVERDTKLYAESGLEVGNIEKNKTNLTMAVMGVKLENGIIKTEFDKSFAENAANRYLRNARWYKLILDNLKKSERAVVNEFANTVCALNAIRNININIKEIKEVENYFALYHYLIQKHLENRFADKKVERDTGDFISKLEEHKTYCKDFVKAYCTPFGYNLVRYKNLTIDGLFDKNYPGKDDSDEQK
Experiment: crRNA (strand 1, pre-loaded); Mg2+; 40 mM Tris-HCl pH 7.5, 150 mM NaCl, 6 mM MgCl2, 1 mM DTT, 0.1% Tween-20, 0.2 mg/ml BSA; 25 C; 10 min per concentration, then washed
Conditions: tags: His6-TwinStrep-SUMO cleaved; N-terminal SNAP kept (SNAP-Surface 488); label: 3' end held by stalled T7 RNA polymerase
pKd: −log10 of the molar value.
# binarize pKd: threshold 8 inclusive, high side 1, low side -1

binder: target 3 insC 3' of 8,insA 3' of 6 (mixed) RNA 1: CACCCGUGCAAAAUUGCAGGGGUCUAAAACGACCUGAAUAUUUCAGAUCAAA RNA 2: GGGAAUGGAUCCACAUCUACGAAUUCGUUUUUGAUCUGAAAUAUCUCAAGGUCUGCAGAUCGGAAGAGCACACGU
class_assignment: -1

binder: target 1 insA 3' of 15,insU 3' of 12 (mixed) RNA 1: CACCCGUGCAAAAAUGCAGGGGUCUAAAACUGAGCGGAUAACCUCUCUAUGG RNA 2: GGGAAUGGAUCCACAUCUACGAAUUCGUACCAUAGAGAAGGUUUAUCCGCUCACCGAGAUCGGAAGAGCACACGU
class_assignment: 1

binder: target 3 U8G (mixed) RNA 1: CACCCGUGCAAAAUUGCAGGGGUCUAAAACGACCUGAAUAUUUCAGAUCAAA RNA 2: GGGAAUGGAUCCACAUCUACGAAUUCGUUUUUGAUCUGAAAUAGUCAGGUCUGCAGAUCGGAAGAGCACACGU
class_assignment: -1

binder: target 1 A1G,C4G (mixed) RNA 1: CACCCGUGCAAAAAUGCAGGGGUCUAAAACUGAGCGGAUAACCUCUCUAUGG RNA 2: GGGAAUGGAUCCACAUCUACGAAUUCGUACCAUAGAGAGGUUAUCCGGUCGCCGAGAUCGGAAGAGCACACGU
class_assignment: 1
